Test system: human lymphocytes
Test: MTT cellular viability assay, normal lymphocytes
Format: cell-based
Conditions: Homo sapiens, Lymphocyte; Lymphocytes, MTT, 72 h
pIC50: −log10 of the molar value.
valueKind: pIC50

Nc1c(-c2ccccc2)oc2ccccc2c1=O [Ligand, 3-aminoflavone, reference compound] :: < 4.00

----------
Test system: human lymphocytes
Test: MTT cellular viability assay, normal lymphocytes
Format: cell-based
Details: Lymphocytes, MTT, 72 h
pIC50: −log10 of the molar value.
valueKind: pIC50

Nc1c(-c2ccccc2)oc2ccccc2c1=O.Nc1c(-c2ccccc2)oc2ccccc2c1=O.[Cl][Pt][Cl] [TCAP(4)] :: 4.92
